The origin of these recorded values is the supplement of paper PMC10567573.

B1: FBXO3 (parent)
chain: FIDTYSDVGRYIDHYAAIKKAWDD

variants of: B1; assay: protein stability index of a GFP-peptide fusion (GPS, HEK-293T) (PSI 1-6); higher = more stable; details: c terminus: a fixed tail appended;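 further: lentivirally expressed fusions sorted by FACS into six bins by GFP to DsRed ratio, PSI derived from sequencing read proportions per bin multiplied by bin number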
Would you mind telling me the reported protein stability index of each entry?
Give bare numbers.

Would you be so kind as to report protein stability index for each listed record?
1. FIDTYSDVGRYIDHYPAIKKAWDD [A16P]
2. FIDTYSDVERYIDHYAAIKKAWDD [G9E]
3. FIDTYSDIGRYIDHYAAIKKAWDD [V8I]
4. FIDTYSDVGRYIDHYAAIKKMWDD [A21M]
5. FIDTYSDVCRYIDHYAAIKKAWDD [G9C]
6. FIFTYSDVGRYIDHYAAIKKAWDD [D3F]
7. VIDTYSDVGRYIDHYAAIKKAWDD [F1V]

1. 2.07
2. 2.15
3. 2.62
4. 3.02
5. 1.65
6. 1.38
7. 3.28
